Target Of Assay: human estrogen receptor β (Homo sapiens)
Construct: expressed in transfected cells; host or cells: CHO cells (CHO-ERβ RO LUC), stably co-transfected with rat oxytocin promoter-luciferase reporter
Sequence (Q92731 whole entry): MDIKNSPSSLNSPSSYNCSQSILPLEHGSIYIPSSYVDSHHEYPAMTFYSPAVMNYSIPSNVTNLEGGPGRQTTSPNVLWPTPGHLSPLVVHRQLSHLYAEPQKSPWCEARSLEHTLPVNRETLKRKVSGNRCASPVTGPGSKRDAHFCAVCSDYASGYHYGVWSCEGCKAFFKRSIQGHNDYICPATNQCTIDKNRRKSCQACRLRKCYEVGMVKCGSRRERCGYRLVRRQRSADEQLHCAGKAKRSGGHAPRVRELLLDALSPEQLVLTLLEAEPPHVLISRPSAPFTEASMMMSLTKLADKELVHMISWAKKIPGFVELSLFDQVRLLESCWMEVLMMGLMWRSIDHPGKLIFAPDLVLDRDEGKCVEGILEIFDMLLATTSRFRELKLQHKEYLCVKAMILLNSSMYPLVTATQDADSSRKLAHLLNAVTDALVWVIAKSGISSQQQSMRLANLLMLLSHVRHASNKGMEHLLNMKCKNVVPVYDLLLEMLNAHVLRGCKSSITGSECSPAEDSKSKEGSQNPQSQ
Test Details: CHO-ERβ bioassay: luciferase transactivation, estrogenic and anti-estrogenic activity
Assay type: cell-based
Applied Conditions: agonist or antagonist in recombinant CHO cells with hERβ, rat oxytocin promoter, luciferase reporter; standard Org 2317 (estradiol)
Observable: ER-β

Known results for compounds:
Input: Using the record for CC#CCC[C@H]1C[C@]2(C)[C@@H](O)CC[C@H]2[C@@H]2CCc3cc(O)ccc3C12 (stereo partly shown) , report its ER-β.
Output: antagonist

Input: Using the record for CCCCC[C@H]1C[C@]2(C)[C@@H](O)CC[C@H]2[C@@H]2CCc3cc(O)ccc3[C@@H]12 , report its ER-β.
Output: antagonist

Input: Using the record for CCC[C@H]1C[C@]2(C)[C@@H](O)CC[C@H]2[C@@H]2CCc3cc(O)ccc3[C@@H]12 , report its ER-β.
Output: agonist

Input: Using the record for C#CCCC[C@H]1C[C@]2(C)[C@@H](O)CC[C@H]2[C@@H]2CCc3cc(O)ccc3[C@@H]12 , report its ER-β.
Output: antagonist

New cases:
Input: Using the record for C[C@]12C[C@H](CC=C3CC3)[C@@H]3c4ccc(O)cc4CC[C@H]3[C@@H]1CC[C@@H]2O , report its ER-β.
Output: agonist

Input: Using the record for CCCC[C@H]1C[C@]2(C)[C@@H](O)CC[C@H]2[C@@H]2CCc3cc(O)ccc3[C@@H]12 , report its ER-β.
Output: agonist

Input: Using the record for C#CCC[C@H]1C[C@]2(C)[C@@H](O)CC[C@H]2[C@@H]2CCc3cc(O)ccc3[C@@H]12 , report its ER-β.
Output: agonist
